- Tested on: Haemophilus influenzae
- test: Antibacterial activity against Haemophilus influenzae after 20 hrs by NCCLS-based two-fold broth dilution method
- Assay type: functional
Give MIC for every item shown.

(Q) Field request: MIC | item: "CCCCCCCCCCCCCCCC(=O)N[C@@H]1CCN[C@@H]([C@H](O[C@@H]2O[C@H](CN)[C@@H](O)[C@H]2O)[C@H]2O[C@@H](n3ccc(=O)[nH]c3=O)[C@H](O)[C@@H]2O)C1"
(A) 32 µg/mL

(Q) How about "CCCCCCCCCCCCCCCC(=O)OC[C@@H]1[C@H](C(N)=O)[C@H]([C@H]2O[C@@H](n3ccc(=O)[nH]c3=O)[C@H](O)[C@@H]2O)ON1CCCN" ?
(A) 0.25 to 0.5 µg/mL

(Q) Same read-out for "CCCCCCCCCCCCCCCC(=O)N[C@H]1CCN[C@H]([C@H](O[C@@H]2O[C@H](CN)[C@@H](O)[C@H]2O)[C@H]2O[C@@H](n3ccc(=O)[nH]c3=O)[C@H](O)[C@@H]2O)C1" ?
(A) 32 µg/mL

====

- System: Pseudomonas aeruginosa
- test: Antibacterial activity against Pseudomonas aeruginosa YY165
- Assay type: functional
So I've got a bunch of compounds here, and I need their MIC values.

(Q) Which MIC value is on record for "CC(=O)N[C@@H]1CCN[C@@H]([C@@H](O[C@@H]2O[C@H](CN)[C@@H](O)[C@H]2O)[C@H]2O[C@@H](n3ccc(=O)[nH]c3=O)[C@H](O)[C@@H]2O)C1" ?
(A) > 64 µg/mL

(Q) Next compound: "CC(=O)N[C@H]1CCN[C@H]([C@H](O[C@@H]2O[C@H](CN)[C@@H](O)[C@H]2O)[C@H]2O[C@@H](n3ccc(=O)[nH]c3=O)[C@H](O)[C@@H]2O)C1"
(A) > 64 µg/mL

(Q) And then "CCCCCCCCCCCCCC(=O)N[C@@H]1CCN[C@@H]([C@H](O[C@@H]2O[C@H](CN)[C@@H](O)[C@H]2O)[C@H]2O[C@@H](n3ccc(=O)[nH]c3=O)[C@H](O)[C@@H]2O)C1" , what is it?
(A) 32 µg/mL

(Q) Check "CC(=O)N[C@@H]1CCN[C@H]([C@H](O[C@@H]2O[C@H](CN)[C@@H](O)[C@H]2O)[C@H]2O[C@@H](n3ccc(=O)[nH]c3=O)[C@H](O)[C@@H]2O)C1" too.
(A) > 64 µg/mL

(Q) Repeat for the following compound: "CCCCCCCCCCCCCCCC(=O)N[C@H]1CCN[C@H]([C@@H](O[C@@H]2O[C@H](CN)[C@@H](O)[C@H]2O)[C@H]2O[C@@H](n3ccc(=O)[nH]c3=O)[C@H](O)[C@@H]2O)C1"
(A) > 64 µg/mL

====

Hi there, I'd appreciate the recorded MIC for every entry that follows.
- Test system: Mycobacterium tuberculosis
- test: Antibacterial activity against Mycobacterium tuberculosis H37Rv
- Type: functional
Use µg/mL as the unit, but write only the number.

(Q) Which MIC value is on record for "CCCCOc1ccc(NC(=O)C2=CCN(C)[C@@H]([C@H](O[C@@H]3O[C@H](CN)[C@@H](O)[C@H]3O)[C@H]3O[C@@H](n4ccc(=O)[nH]c4=O)[C@H](O)[C@@H]3O)C(=O)N2C)cc1" ?
(A) 1.56

(Q) Another compound to look at: "CCCCCCCCCCCCCCCCCCCNC(=O)C1=CCN(C)[C@@H]([C@H](O[C@@H]2O[C@H](CN)[C@@H](O)[C@H]2O)[C@H]2O[C@@H](n3ccc(=O)[nH]c3=O)[C@H](O)[C@@H]2O)C(=O)N1C"
(A) 1.56

(Q) Item: "CCc1ccc(NC(=O)C2=CCN(C)[C@@H]([C@H](O[C@@H]3O[C@H](CN)[C@@H](O)[C@H]3O)[C@H]3O[C@@H](n4ccc(=O)[nH]c4=O)[C@H](O)[C@@H]3O)C(=O)N2C)cc1"
(A) 6.25

====

Please provide measured MIC for the entries that follow.
- System: Mycolicibacterium smegmatis
- test: Antibacterial activity against Mycobacterium smegmatis ATCC 607
- Format: functional
Report only the number, with the unit µg/mL understood.

(Q) Look up MIC for this molecule: "CC/C=C/CCCCCCCCCCOC(=O)C1=CCN(C)[C@@H]([C@H](O[C@@H]2O[C@H](CN)[C@@H](O)[C@H]2O)[C@H]2O[C@@H](n3ccc(=O)[nH]c3=O)[C@H](O)[C@@H]2O)C(=O)N1C"
(A) 6.25

(Q) Input "CCCCCCCCCCCCCCCNC(=O)C1=CCN(C)[C@@H]([C@H](O[C@@H]2O[C@H](CN)[C@@H](O)[C@H]2O)[C@H]2O[C@@H](n3ccc(=O)[nH]c3=O)[C@H](O)[C@@H]2O)C(=O)N1C"
(A) 1.56

(Q) # repeat for "CCCCc1ccc(NC(=O)C2=CCN[C@@H]([C@H](O[C@@H]3O[C@H](CN)[C@@H](O)[C@H]3O)[C@H]3O[C@@H](n4ccc(=O)[nH]c4=O)[C@H](O)[C@@H]3O)C(=O)N2C)cc1"
(A) 6.25

(Q) Cool, now "CCCCCCCCCCCCCCCCCNC(=O)C1=CCN(C)[C@@H]([C@H](O[C@@H]2O[C@H](CN)[C@@H](O)[C@H]2O)[C@H]2O[C@@H](n3ccc(=O)[nH]c3=O)[C@H](O)[C@@H]2O)C(=O)N1C"
(A) 1.56

(Q) And then "CN1C(=O)[C@H]([C@H](O[C@@H]2O[C@H](CN)[C@@H](O)[C@H]2O)[C@H]2O[C@@H](n3ccc(=O)[nH]c3=O)[C@H](O)[C@@H]2O)N(C)CC=C1C(=O)NC1CCCCCCCCCCC1" , what is it?
(A) 3.13

====

Could you please report measured MIC for the items listed next?
- System: Mycobacterium tuberculosis
- test: Antibacterial activity against Mycobacterium tuberculosis H37Rv
- Format: functional
I only need the number, in µg/mL, no unit after it.

(Q) Field request: MIC | item: "CCCCCCCCCCCNC(=O)C1=CCN(C)[C@@H]([C@H](O[C@@H]2O[C@H](CN)[C@@H](O)[C@H]2O)[C@H]2O[C@@H](n3ccc(=O)[nH]c3=O)[C@H](O)[C@@H]2O)C(=O)N1C"
(A) 1.56

(Q) And then "CN1C(=O)[C@H]([C@H](O[C@@H]2O[C@H](CN)[C@@H](O)[C@H]2O)[C@H]2O[C@@H](n3ccc(=O)[nH]c3=O)[C@H](O)[C@@H]2O)N(C)CC=C1C(=O)NC1CCCCCCCCCCC1" , what is it?
(A) 1.56

(Q) Repeat for the following compound: "C=CCCCCCCCCCOC(=O)C1=CCN(C)[C@@H]([C@H](O[C@@H]2O[C@H](CN)[C@@H](O)[C@H]2O)[C@H]2O[C@@H](n3ccc(=O)[nH]c3=O)[C@H](O)[C@@H]2O)C(=O)N1C"
(A) 12.5

(Q) Try this compound too: "CCCCCCCCNC(=O)C1=CCN(C)[C@@H]([C@H](O[C@@H]2O[C@H](CN)[C@@H](O)[C@H]2O)[C@H]2O[C@@H](n3ccc(=O)[nH]c3=O)[C@H](O)[C@@H]2O)C(=O)N1C"
(A) 3.3

(Q) Also, "CCCCCCCOc1ccc(NC(=O)C2=CCN(C)[C@@H]([C@H](O[C@@H]3O[C@H](CN)[C@@H](O)[C@H]3O)[C@H]3O[C@@H](n4ccc(=O)[nH]c4=O)[C@H](O)[C@@H]3O)C(=O)N2C)cc1" please.
(A) 0.78

(Q) Queued: "CCCCCCCCCCCCCCNC(=O)C1=CCN(C)[C@@H]([C@H](O[C@@H]2O[C@H](CN)[C@@H](O)[C@H]2O)[C@H]2O[C@@H](n3ccc(=O)[nH]c3=O)[C@H](O)[C@@H]2O)C(=O)N1C"
(A) 1.56

(Q) Here is the next compound: "CCCCCCCCCCCCCOC(=O)C1=CCN(C)[C@@H]([C@H](O[C@@H]2O[C@H](CN)[C@@H](O)[C@H]2O)[C@H]2O[C@@H](n3ccc(=O)[nH]c3=O)[C@H](O)[C@@H]2O)C(=O)N1C"
(A) 6.25

(Q) Next compound up: "CCCCCNC(=O)C1=CCN(C)[C@@H]([C@H](O[C@@H]2O[C@H](CN)[C@@H](O)[C@H]2O)[C@H]2O[C@@H](n3ccc(=O)[nH]c3=O)[C@H](O)[C@@H]2O)C(=O)N1C"
(A) 12.5

(Q) Another: "CCCCCCc1ccc(NC(=O)C2=CCN(C)[C@@H]([C@H](O[C@@H]3O[C@H](CN)[C@@H](O)[C@H]3O)[C@H]3O[C@@H](n4ccc(=O)[nH]c4=O)[C@H](O)[C@@H]3O)C(=O)N2C)cc1"
(A) 0.78

====

- System: Enterococcus faecalis
- test: Antibacterial activity against Enterococcus faecalis SR7914 (VRE)
- Assay type: functional
metric.name: MIC
# answer = value followed by unit

(Q) Reported MIC for "CCCCCCCCCCCC(=O)N[C@@H]1CCN[C@@H]([C@H](O[C@@H]2O[C@H](CN)[C@@H](O)[C@H]2O)[C@H]2O[C@@H](n3ccc(=O)[nH]c3=O)[C@H](O)[C@@H]2O)C1" : what is it?
(A) 4 µg/mL

(Q) Quick one: CCCCCCCCCCCCCCCC(=O)NC[C@@H]1CC2[C@H](C(=O)N1CCCNC(=N)N)[C@@H]([C@H]1O[C@@H](n3ccc(=O)[nH]c3=O)[C@H](O)[C@@H]1O)ON2CCCN (single isomer, unassigned)
(A) 16 µg/mL

(Q) Next: "CCCCCCCCC(CCCCCCCC)C(=O)N[C@@H]1CCN[C@@H]([C@H](O[C@@H]2O[C@H](CN)[C@@H](O)[C@H]2O)[C@H]2O[C@@H](n3ccc(=O)[nH]c3=O)[C@H](O)[C@@H]2O)C1"
(A) 4 µg/mL
